Entries annotated with measured AC50
Tested on: human bronchial epithelial cells, CFTR corrector, plate reader
Assay: rescue of ΔF508 CFTR function, airway epithelium – human bronchial epithelial cells, plate reader, cherry-pick, two tests, dose response (AID 743267)
Conditions: measured here: test 2 replicate run

Some compounds with recorded AC50:
- compound: "CCOc1ccc(-c2cc(C(=O)N3CCN(c4ccccn4)CC3)c3ccccc3n2)cc1"
  test system: "human bronchial epithelial cells, CFTR corrector, plate reader"
  AC50: "16 µM"
- compound: "CC1(C(=O)NCc2ccco2)Cc2c(-c3ccc4c(c3)OCO4)ccnc2O1 (stereo not given)"
  test system: "human bronchial epithelial cells, CFTR corrector, plate reader"
  AC50: "1.88 µM"

I have this compound here, C=CCn1c(SCC(=O)N(C)C2CCS(=O)(=O)C2)nc2ccccc2c1=O (stereo not given) , and I need its recorded AC50.
26.7 µM

I have this compound here, `CCN(C(=O)CSc1nnc(C)n1-c1ccc(C)cc1)c1c(N)n(Cc2ccccc2)c(=O)[nH]c1=O` , and I need its recorded AC50.
> 50 µM

I have this compound here, COC(=O)C1=CN(c2ccc3c(c2)OCO3)C(N)=C(C#N)C1c1cccc(F)c1 (stereo not given) , and I need its recorded AC50.
1.55 µM

I have this compound here, `COc1ccc(-c2cc(NC=O)c3ncc(-c4ccc(OC)c(OC)c4)n3c2)cc1` , and I need its recorded AC50.
22.3 µM

I have this compound here, `Cc1ccc2c(c1)CCCN2C(=O)CCc1nc2ccccc2c(=O)[nH]1` , and I need its recorded AC50.
5.42 µM

I have this compound here, `Cc1cc(Br)cc(/C=N/NC(=O)c2ccc3c(c2)OCO3)c1O` , and I need its recorded AC50.
6.69 µM

I have this compound here, `Cc1cc(C)c(/C=C2\C(=O)Nc3ccccc32)[nH]1` , and I need its recorded AC50.
10.8 µM

I have this compound here, `N#Cc1nc(NCC(F)F)nc(Nc2cc(F)cc(F)c2)n1` , and I need its recorded AC50.
16 µM

* * *

Tested on: human bronchial epithelial cells, CFTR corrector, plate reader
Assay: rescue of ΔF508 CFTR function, airway epithelium – human bronchial epithelial cells, plate reader, cherry-pick, two tests, dose response (AID 743267)
Settings: measured here: test 2 replicate run
value kind: AC50 (µM)
Please state the figure in µM; there is no need to write the unit.

Some compounds with recorded AC50:
- compound: "Cc1cc(C(=O)N2CC=C(c3ccccc3)CC2)c2ccccc2n1"
  AC50, µM: 0.66
- compound: "COc1ccc(C2=Nn3c(nnc3-c3ccccc3OC)SC2)cc1OC1CCOC1 (stereo not drawn)"
  AC50, µM: 0.973
- compound: "CN(C)/C=C1\\C=C2C(=O)c3ccccc3N2C1=O"
  AC50, µM: 5.5

Lab request: please report AC50 under test system human bronchial epithelial cells, CFTR corrector, plate reader for `Cc1ccc(N(C)S(=O)(=O)c2ccc(-c3cnc(C4CC4)o3)cc2)cc1`
1.17

Lab request: please report AC50 under test system human bronchial epithelial cells, CFTR corrector, plate reader for `O=C1c2cccc(NCCCNCCO)c2C(=O)c2cccc(NCCCNCCO)c21`
16

Lab request: please report AC50 under test system human bronchial epithelial cells, CFTR corrector, plate reader for `O=C1c2cccc3c([N+](=O)[O-])ccc(c23)C(=O)N1Cc1cccnc1`
10.2

Lab request: please report AC50 under test system human bronchial epithelial cells, CFTR corrector, plate reader for `COc1ccc(OC)c(C(=O)Cn2nnc(-c3ccc(N4CCOCC4)cc3)n2)c1`
31.1

Lab request: please report AC50 under test system human bronchial epithelial cells, CFTR corrector, plate reader for `CCN(CC)CCCNc1ccc2ncn3c4ccc(O)cc4c(=O)c1c23`
1.8

Lab request: please report AC50 under test system human bronchial epithelial cells, CFTR corrector, plate reader for `CCC1=Nc2cc(C(=O)NCc3cccnc3)ccc2Sc2ccc(C)cc21`
6.64

Recorded values, source PubChem BioAssay AID743267.
